# TEST TARGET: androgen receptor (AR) (Homo sapiens, UniProt P10275, T878A)
# Construct: endogenous in cells; host or cells: LNCaP
# PROCEDURE TEXT: PSA (6.1 kb)-luciferase reporter assay in LNCaP cells induced with R1881
# Assay type: cell-based
# ASSAY CONTEXT: LNCaP cells transfected with PSA (6.1 kb)-luciferase; 1 h pre-treatment, R1881 (1 nM) 24 h; Trial 3; read-out: IC50, Trial 3
PROPERTY NAME: IC50 (µM)
// units = µM; emit number, no label

Task: So what's the measured IC50 for this one? `CC(C)(c1ccc(OC[C@H](O)CO)cc1)c1ccc(OC[C@@H](Cl)CO)cc1`
Output: 17

---

# TEST TARGET: androgen receptor (AR) (Homo sapiens, UniProt P10275, T878A)
# Construct: endogenous in cells; host or cells: LNCaP
# Sequence (P10275 1-920 T878A): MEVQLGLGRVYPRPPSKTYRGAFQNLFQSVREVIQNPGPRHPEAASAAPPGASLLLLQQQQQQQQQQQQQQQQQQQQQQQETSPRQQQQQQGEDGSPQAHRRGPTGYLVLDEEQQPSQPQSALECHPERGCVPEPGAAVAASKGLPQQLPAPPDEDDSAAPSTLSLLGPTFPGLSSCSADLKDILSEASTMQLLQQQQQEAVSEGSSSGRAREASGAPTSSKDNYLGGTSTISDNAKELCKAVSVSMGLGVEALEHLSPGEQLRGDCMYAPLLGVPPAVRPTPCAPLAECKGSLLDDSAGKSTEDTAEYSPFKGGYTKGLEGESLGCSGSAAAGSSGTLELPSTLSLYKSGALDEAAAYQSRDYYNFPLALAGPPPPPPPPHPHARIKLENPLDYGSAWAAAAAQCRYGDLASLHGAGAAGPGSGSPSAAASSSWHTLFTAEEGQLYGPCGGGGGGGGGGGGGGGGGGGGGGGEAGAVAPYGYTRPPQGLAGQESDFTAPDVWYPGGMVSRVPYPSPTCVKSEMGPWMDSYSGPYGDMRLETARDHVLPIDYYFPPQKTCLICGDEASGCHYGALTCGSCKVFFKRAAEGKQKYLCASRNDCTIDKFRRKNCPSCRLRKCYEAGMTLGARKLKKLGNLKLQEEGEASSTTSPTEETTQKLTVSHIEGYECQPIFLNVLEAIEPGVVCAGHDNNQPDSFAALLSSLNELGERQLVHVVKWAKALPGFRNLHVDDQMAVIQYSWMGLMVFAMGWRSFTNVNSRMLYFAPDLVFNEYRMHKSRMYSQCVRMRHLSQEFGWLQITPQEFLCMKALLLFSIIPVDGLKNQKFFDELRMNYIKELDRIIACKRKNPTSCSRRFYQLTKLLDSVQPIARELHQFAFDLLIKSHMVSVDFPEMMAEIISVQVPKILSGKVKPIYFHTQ
# PROCEDURE TEXT: PSA (6.1 kb)-luciferase reporter assay in LNCaP cells induced with R1881
# Assay type: cell-based
# ASSAY CONTEXT: LNCaP cells transfected with PSA (6.1 kb)-luciferase; 1 h pre-treatment, R1881 (1 nM) 24 h; Trial 4; read-out: IC50, Trial 4
PROPERTY NAME: pIC50
Quick note: pIC50 values are minus log10 of concentrations in mol/L.

Task: So what's the measured pIC50 for this one? `CC(C)(c1ccc(OC[C@H](O)CO)cc1)c1ccc(OC[C@@H](Cl)CO)cc1`
Output: 4.80

---

# TEST TARGET: androgen receptor (AR) (Homo sapiens, UniProt P10275, T878A)
# Construct: endogenous in cells; host or cells: LNCaP
# PROCEDURE TEXT: PSA (6.1 kb)-luciferase reporter assay in LNCaP cells induced with R1881
# Type: cell-based
# ASSAY CONTEXT: LNCaP cells transfected with PSA (6.1 kb)-luciferase; 1 h pre-treatment, R1881 (1 nM) 24 h; average of trials; read-out: Average IC50
PROPERTY NAME: pIC50
Scale for pIC50: -log10 of concentration given in mol/L; no unit attached.

Task: Request the reported pIC50 associated with `CC(C)(c1ccc(OC[C@H](O)CO)cc1)c1ccc(OC[C@@H](Cl)CO)cc1`
Output: 4.78

---

# TEST TARGET: androgen receptor (AR) (Homo sapiens, UniProt P10275, T878A)
# Construct: endogenous in cells; host or cells: LNCaP
# PROCEDURE TEXT: PSA (6.1 kb)-luciferase reporter assay in LNCaP cells induced with R1881
# Type: cell-based
# ASSAY CONTEXT: LNCaP cells transfected with PSA (6.1 kb)-luciferase; 1 h pre-treatment, R1881 (1 nM) 24 h; Trial 1; read-out: IC50, Trial 1
PROPERTY NAME: IC50 (µM)
The figure you give is taken to be in µM; do not add the unit.

Task: IC50 lookup needed for `CC(C)(c1ccc(OC[C@H](O)CO)cc1)c1ccc(OC[C@@H](Cl)CO)cc1` , thanks.
Output: 14
